Tested on: Human immunodeficiency virus 1
Assay Details: Antiviral activity against HIV1 multi PI resistant strain 4596
Assay type: functional, organism-based
Protocol Conditions: Human immunodeficiency virus 1, 4596
Label t when EC50 is strictly below 100 nM; at or above that, label f.

> print(dat)
                                         smi                       tested.on  label
 1  CC(C)CN([C@H](CO)CCCCNC(=O)[C@@H](NC(=O)c1ccncc1)C(c1ccccc1)c1ccccc1)S(=O)(=O)c1ccc(N)cc1  Human immunodeficiency virus 1      t
 2  CC(C)CN([C@H](CO)CCCCNC(=O)[C@@H](NC(=O)c1ccccn1)C(c1ccccc1)c1ccccc1)S(=O)(=O)c1ccc(N)cc1  Human immunodeficiency virus 1      f
 3  CC(C)CN([C@H](CO)CCCCNC(=O)[C@@H](NC(=O)c1ccccc1O)C(c1ccccc1)c1ccccc1)S(=O)(=O)c1ccc(N)cc1  Human immunodeficiency virus 1      f
 4  CC(C)CN([C@H](CO)CCCCNC(=O)[C@@H](NC(=O)OCc1ccccn1)C(c1ccccc1)c1ccccc1)S(=O)(=O)c1ccc(N)cc1  Human immunodeficiency virus 1      t
 5  CC(C)CN([C@H](CO)CCCCNC(=O)[C@@H](NC(=O)OC(C)(C)C)C(c1ccccc1)c1ccccc1)S(=O)(=O)c1ccc(N)cc1  Human immunodeficiency virus 1      f
 6  CC(C)CN([C@H](CO)CCCCNC(=O)[C@@H](N)C(c1ccccc1)c1ccccc1)S(=O)(=O)c1ccc(N)cc1  Human immunodeficiency virus 1      t
 7  CC(C)CN([C@H](CO)CCCCNC(=O)[C@@H](NC(=O)C1CCCCC1)C(c1ccccc1)c1ccccc1)S(=O)(=O)c1ccc(N)cc1  Human immunodeficiency virus 1      f
 8  CC(=O)N[C@H](C(=O)NCCCC[C@@H](CO)N(CC(C)C)S(=O)(=O)c1ccc(N)cc1)C(c1ccccc1)c1ccccc1  Human immunodeficiency virus 1      t
 9  CC(C)CN([C@H](CO)CCCCNC(=O)[C@@H](NC(=O)C1CC1)C(c1ccccc1)c1ccccc1)S(=O)(=O)c1ccc(N)cc1  Human immunodeficiency virus 1      t
10  CC(C)CN([C@H](CO)CCCCNC(=O)[C@@H](NC(=O)c1ncccc1O)C(c1ccccc1)c1ccccc1)S(=O)(=O)c1ccc(N)cc1  Human immunodeficiency virus 1      f

Numbers sourced from ChEMBL document CHEMBL1138097.
